EXPERIMENT_NOTES: in vitro
SETTINGS: human

{"COMPOUND": "N#C[C@@]1(c2ccc3c(N)ncnn23)O[C@H](CO)[C@@H](O)[C@H]1O [GS-441524, reference compound]", "OUTPUT_UNIT": "µM", "MODIFIER": ">", "CC50": 100}
{"COMPOUND": "CCN(CC)CCCC(C)Nc1ccnc2cc(Cl)ccc12 (centres unmarked) [Chloroquine, chloroquine, reference compound]", "OUTPUT_UNIT": "µM", "MODIFIER": "=", "CC50": 33.6}
{"COMPOUND": "CCCOc1ccc(-c2cc(OCCN3CCCC3)c3c(OC)ccc(OC)c3n2)cc1", "OUTPUT_UNIT": "µM", "MODIFIER": "=", "CC50": 8.7}
{"COMPOUND": "CCCOc1ccc(-c2cc(OCCN3CCCCC3)c3c(OC)ccc(OC)c3n2)cc1", "OUTPUT_UNIT": "µM", "MODIFIER": "=", "CC50": 95.3}
{"COMPOUND": "CCCOc1ccc(-c2cc(OCCN3CCCCC3)c3cc(OC)c(OC)cc3n2)cc1", "OUTPUT_UNIT": "µM", "MODIFIER": "=", "CC50": 12.3}

* * *

EXPERIMENT_NOTES: in vitro
SETTINGS: human
Recorded CC50 for the following molecules
EXPERIMENTAL_READOUT: CC50

{"MOLECULE": "CCCOc1ccc(-c2cc(OCCN3CCNCC3)c3cccc(OC)c3n2)cc1 [Compound 5i]", "EXPERIMENTAL_READOUT": "CC50", "RESULT": "8 µM"}
{"MOLECULE": "CCCOc1ccc(-c2cc(OCCN(CC)CC)c3c(OC)ccc(OC)c3n2)cc1 [Compound 7a]", "EXPERIMENTAL_READOUT": "CC50", "RESULT": "9.9 µM"}
{"MOLECULE": "CCCOc1ccc(-c2cc(OCCN3CCCC3)c3cc(OC)cc(OC)c3n2)cc1 [Compound 9j]", "EXPERIMENTAL_READOUT": "CC50", "RESULT": "> 100 µM"}
{"MOLECULE": "CCCOc1ccc(-c2cc(OCCN(CC)CC)c3cc(OC)cc(OC)c3n2)cc1 [Compound 9a]", "EXPERIMENTAL_READOUT": "CC50", "RESULT": "43.5 µM"}
{"MOLECULE": "CCCOc1ccc(-c2cc(OCCN3CCN(Cc4ccccc4)CC3)c3c(OC)cc(OC)cc3n2)cc1 [Compound 6f]", "EXPERIMENTAL_READOUT": "CC50", "RESULT": "35.6 µM"}
{"MOLECULE": "CCCOc1ccc(-c2cc(OCCN(CC)CC)c3cccc(OC)c3n2)cc1 [Compound 5a]", "EXPERIMENTAL_READOUT": "CC50", "RESULT": "10.4 µM"}
{"MOLECULE": "CCCOc1ccc(-c2cc(OCCN3CCN(Cc4ccccc4)CC3)c3ccccc3n2)cc1 [Compound 1f]", "EXPERIMENTAL_READOUT": "CC50", "RESULT": "> 100 µM"}
{"MOLECULE": "CCCOc1ccc(-c2cc(OCCN(CC)CC)c3cc(OC)c(OC)cc3n2)cc1 [Compound 8a]", "EXPERIMENTAL_READOUT": "CC50", "RESULT": "9.2 µM"}
